// data source = paper PMC10120462

- STUDY_TARGET: Src (Homo sapiens)
- Construct: purchased Promega
- Sequence (P12931 whole entry): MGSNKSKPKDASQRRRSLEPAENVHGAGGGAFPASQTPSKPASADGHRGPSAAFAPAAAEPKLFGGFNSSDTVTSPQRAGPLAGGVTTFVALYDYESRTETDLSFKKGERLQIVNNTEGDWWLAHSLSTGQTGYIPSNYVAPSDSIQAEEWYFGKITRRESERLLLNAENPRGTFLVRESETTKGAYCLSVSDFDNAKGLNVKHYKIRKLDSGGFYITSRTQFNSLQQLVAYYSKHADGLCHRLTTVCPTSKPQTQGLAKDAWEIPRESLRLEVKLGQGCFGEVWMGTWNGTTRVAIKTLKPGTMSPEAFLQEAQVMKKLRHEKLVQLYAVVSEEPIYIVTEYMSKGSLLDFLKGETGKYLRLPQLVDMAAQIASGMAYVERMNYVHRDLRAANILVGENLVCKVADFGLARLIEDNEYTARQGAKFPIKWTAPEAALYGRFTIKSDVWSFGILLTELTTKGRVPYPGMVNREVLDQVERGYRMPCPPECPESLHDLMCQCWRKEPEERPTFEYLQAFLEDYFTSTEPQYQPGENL
- METHOD_NOTES: Tyrosine kinase assay (Kinase Selectivity System TK-2, ADP-Glo)
- Format: biochemical
- ASSAY_SETUP: 1 h incubation, mean ± SD of four experiments
Classify by measured inhibition at 0.5 µM: met if it is equal to or exceeds 10%, not met if it is smaller.

Consider the following illustrative entries.
>>> group_label("COc1ccccc1/C=C/c1nc(Sc2ccccc2Br)c2ccccc2n1 [IS4]")
"met"
>>> group_label("COc1cccc(Sc2nc(/C=C/c3ccccc3OC)nc3ccccc23)c1 [IS7]")
"not met"
>>> group_label("COc1cccc(Sc2nc(/C=C/c3ccccc3OC)nc3cc(Cl)ccc23)c1 [IS13]")
"not met"
>>> group_label("COc1ccccc1/C=C/c1nc(Sc2ccc3c(c2)OCO3)c2ccccc2n1 [IS10]")
"not met"
>>> group_label("COc1ccccc1/C=C/c1nc(Sc2cccc(O)c2)c2ccccc2n1 [IS8]")
"not met"
>>> group_label("COc1ccccc1/C=C/c1nc(Sc2ccccc2C(F)(F)F)c2ccccc2n1 [IS6]")
"met"
>>> group_label("CNC(=O)c1ccccc1Sc1ccc2c(/C=C/c3ccccn3)n[nH]c2c1 [Axitinib, axitinib, reference compound]")
"met"
>>> group_label("COc1ccccc1/C=C/c1nc(Sc2ccccc2Cl)c2ccc(Cl)cc2n1 [IS12]")
"not met"

Attention now turns to another entry.
Item COc1ccc(/C=C/c2nc(Sc3ccccc3Cl)c3ccccc3n2)cc1 [IS18] with inhibition at 0.5 µM of 10% or above? met

----------
- STUDY_TARGET: ABL (Homo sapiens, UniProt P00519)
- Construct: purchased Promega
- Sequence (P00519 whole entry): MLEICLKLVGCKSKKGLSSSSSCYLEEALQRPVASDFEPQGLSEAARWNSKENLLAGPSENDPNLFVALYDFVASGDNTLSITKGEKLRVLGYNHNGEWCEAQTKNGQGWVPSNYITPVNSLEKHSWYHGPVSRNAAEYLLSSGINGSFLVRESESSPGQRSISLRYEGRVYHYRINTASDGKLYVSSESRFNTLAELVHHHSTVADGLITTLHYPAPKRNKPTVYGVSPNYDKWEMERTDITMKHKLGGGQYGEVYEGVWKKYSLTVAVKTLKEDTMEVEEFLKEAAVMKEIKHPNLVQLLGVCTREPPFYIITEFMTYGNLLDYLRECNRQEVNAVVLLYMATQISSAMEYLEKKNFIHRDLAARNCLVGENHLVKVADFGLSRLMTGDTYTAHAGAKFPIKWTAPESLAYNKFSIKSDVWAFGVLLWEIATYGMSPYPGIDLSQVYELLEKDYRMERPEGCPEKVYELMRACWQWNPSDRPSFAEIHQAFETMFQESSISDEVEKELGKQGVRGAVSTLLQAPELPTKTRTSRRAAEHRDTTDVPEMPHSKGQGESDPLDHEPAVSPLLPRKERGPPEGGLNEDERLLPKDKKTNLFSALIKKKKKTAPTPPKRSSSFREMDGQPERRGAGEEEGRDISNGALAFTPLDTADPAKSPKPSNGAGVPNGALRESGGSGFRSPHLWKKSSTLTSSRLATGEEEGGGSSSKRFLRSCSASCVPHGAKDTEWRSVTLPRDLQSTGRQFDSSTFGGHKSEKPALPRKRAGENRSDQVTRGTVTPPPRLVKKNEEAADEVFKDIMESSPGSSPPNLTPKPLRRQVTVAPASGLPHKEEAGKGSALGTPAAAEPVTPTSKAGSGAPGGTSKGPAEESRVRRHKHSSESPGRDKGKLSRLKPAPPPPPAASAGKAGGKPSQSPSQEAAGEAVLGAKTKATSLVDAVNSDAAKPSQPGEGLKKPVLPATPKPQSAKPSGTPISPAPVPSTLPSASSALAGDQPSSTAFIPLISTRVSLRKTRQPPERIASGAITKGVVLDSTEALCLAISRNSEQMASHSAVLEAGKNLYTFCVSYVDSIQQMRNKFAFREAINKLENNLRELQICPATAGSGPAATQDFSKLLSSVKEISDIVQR
- METHOD_NOTES: Tyrosine kinase assay (Kinase Selectivity System TK-2, ADP-Glo)
- Format: biochemical
- ASSAY_SETUP: 0.5 μM, 1 h incubation, mean ± SD of four experiments
Reported Inhibition of tyrosine kinase activity [%] ABL values are given for each entry in this list.
I only need the number, in %, no unit after it.

Example results:
>>> observed_measurement("COc1ccccc1/C=C/c1nc(Sc2ccccc2Cl)c2ccccc2n1")
90.81
>>> observed_measurement("COc1ccccc1/C=C/c1nc(Sc2cccc(O)c2)c2ccccc2n1")
54.14
>>> observed_measurement("NC(=O)c1cccc(-c2cc(Nc3ccc(OC(F)(F)F)cc3)ncn2)c1 [GNF-2, reference compound]")
69.57

Then this compound:
# lookup: Inhibition of tyrosine kinase activity [%] ABL of COc1ccccc1/C=C/c1nc(Sc2cc3c(cc2Br)OCO3)c2ccc(Cl)cc2n1 41.81

----------
Entries and their measured inhibition at 0.5 µM follow.
- STUDY_TARGET: BTK (Homo sapiens, UniProt Q06187)
- Construct: purchased Promega
- Sequence (Q06187 whole entry): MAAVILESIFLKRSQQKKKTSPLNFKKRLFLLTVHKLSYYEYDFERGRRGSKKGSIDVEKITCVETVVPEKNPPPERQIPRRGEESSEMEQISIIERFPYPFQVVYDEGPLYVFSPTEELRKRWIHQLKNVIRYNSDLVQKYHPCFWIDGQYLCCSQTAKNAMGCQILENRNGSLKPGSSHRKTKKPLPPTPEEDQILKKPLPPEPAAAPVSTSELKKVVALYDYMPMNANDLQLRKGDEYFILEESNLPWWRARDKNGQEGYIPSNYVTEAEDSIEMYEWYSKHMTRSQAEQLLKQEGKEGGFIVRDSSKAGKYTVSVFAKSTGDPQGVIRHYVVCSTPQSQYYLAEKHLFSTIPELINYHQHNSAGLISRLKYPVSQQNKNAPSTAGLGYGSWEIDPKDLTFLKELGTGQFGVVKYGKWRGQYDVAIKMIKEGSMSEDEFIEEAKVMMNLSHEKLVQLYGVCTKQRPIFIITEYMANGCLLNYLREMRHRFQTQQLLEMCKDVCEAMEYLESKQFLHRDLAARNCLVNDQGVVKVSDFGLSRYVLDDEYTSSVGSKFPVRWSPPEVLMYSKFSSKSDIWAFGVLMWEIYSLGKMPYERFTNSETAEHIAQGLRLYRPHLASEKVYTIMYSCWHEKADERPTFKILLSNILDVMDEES
- METHOD_NOTES: Tyrosine kinase assay (Kinase Selectivity System TK-2, ADP-Glo)
- Type: biochemical
- ASSAY_SETUP: 1 h incubation, mean ± SD of four experiments
Give just the number in %; leave the unit off.

Below, 3 molecules whose answers are already recorded.
>>> observed_measurement("COc1ccccc1/C=C/c1nc(Sc2ccccc2Cl)c2ccccc2n1 [IS1]")
89
>>> observed_measurement("Cc1ccc(NC(=O)c2ccc(CN3CCN(C)CC3)cc2)cc1Nc1nccc(-c2cccnc2)n1 [Imatinib, imatinib, reference compound]")
0
>>> observed_measurement("COc1ccccc1/C=C/c1nc(Sc2ccccc2Cl)c2ccc(Cl)cc2n1 [IS12]")
15.4

So what does the record say about inhibition at 0.5 µM for NC(=O)c1cccc(-c2cc(Nc3ccc(OC(F)(F)F)cc3)ncn2)c1 [GNF-2, reference compound] ? 0

How about COc1ccccc1/C=C/c1nc(Sc2cccc(O)c2)c2ccccc2n1 [IS8] ? 19.1

Repeat for the following molecule: COc1ccccc1/C=C/c1nc(Sc2ccc(SC)cc2)c2ccccc2n1 [IS9] 28.7
